- experimental-system: Bile acid receptor (Homo sapiens)
- test-protocol: Antagonist activity at GST-tagged FXR LBD (unknown origin) assessed as inhibition of GW4064-induced fluorecein-labeled SRC2-2 coactivator recruitment by Lanthascreen TR-FRET assay
Form field: IC50 (one value per entry).

Data request: What does the data say about its IC50? Entry: Cc1ccc2nc([C@H](CC3CCN(C(=O)C(C)C)CC3)NC(=O)Nc3ccc(Oc4ccccc4)cc3)n(C)c2c1
Data returned: > 400 µM

Data request: Field request: IC50 | item: Cc1ccc2nc([C@H](CC3CCN(C(=O)C(C)C)CC3)NC(=O)c3ccc(Oc4ccccc4)cc3)n(C)c2c1
Data returned: > 400 µM

Data request: What IC50 value was documented for this compound, Cc1ccc2nc([C@H](Cc3ccc(Cl)cc3)N3C(=O)CN(c4ccc(Oc5ccccc5)cc4)C3=O)n(C)c2c1 ?
Data returned: > 400 µM

---

- experimental-system: Bile acid receptor (Homo sapiens, UniProt Q96RI1)
- Sequence (Q96RI1 whole entry, the tested form may be a part): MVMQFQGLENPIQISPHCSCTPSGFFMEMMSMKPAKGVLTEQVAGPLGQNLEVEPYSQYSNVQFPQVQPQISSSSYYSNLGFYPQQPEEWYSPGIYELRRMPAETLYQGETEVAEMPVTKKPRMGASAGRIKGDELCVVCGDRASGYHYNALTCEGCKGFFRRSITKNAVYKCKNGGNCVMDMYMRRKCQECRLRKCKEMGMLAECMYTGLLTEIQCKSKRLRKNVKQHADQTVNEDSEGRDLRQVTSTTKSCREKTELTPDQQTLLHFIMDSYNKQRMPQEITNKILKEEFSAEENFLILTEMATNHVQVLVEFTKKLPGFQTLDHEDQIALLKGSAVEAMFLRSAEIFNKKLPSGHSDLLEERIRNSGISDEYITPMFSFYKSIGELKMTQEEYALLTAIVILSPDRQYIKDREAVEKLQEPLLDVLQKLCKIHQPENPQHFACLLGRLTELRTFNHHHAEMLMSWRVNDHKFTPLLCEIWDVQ
- test-protocol: Antagonist activity at human FXR expressed in Huh7 cells assessed as inhibition of CDCA-induced FXR response element driven luciferase activity after 24 hrs
- Format: cell-based
test-readout: IC50

COc1ccc(Oc2ccc(N3CC(=O)N([C@@H](CC4CCN(C(=O)C(C)C)CC4)c4nc5ccc(C)cc5n4C)C3=O)cc2)cc1 ... < 0.001 nM
Cc1ccc2c(c1)nc([C@H](CC1CCN(C(=O)C(C)C)CC1)N1C(=O)CN(c3ccc(Oc4ccccc4)cc3)C1=O)n2C ... < 0.001 nM

Data request: Given the compound Cc1ccc2nc([C@H](CC3CCN(C(=O)C(C)C)CC3)NC(=O)c3ccc(Oc4ccccc4)cc3)n(C)c2c1 , what is its reported IC50?
Data returned: > 20000 nM
